experiment: splicing luciferase reporter signal modulators, primary screen, spliceosome inhibition project, cell-based, HEK293, splice +/- reporter (AID 1101); settings: luminescence, 24 h, higher = more signal, called active from +8 up or from −8 down;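 further: HEK293 cells carrying a splicing-competent luciferase reporter gene; test concentration not given here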
The recorded z-score of each item maps onto one of these classes: interval 1: < 0.06; interval 2: ≥ 0.06 and < 0.4; interval 3: ≥ 0.4

[[record]]
molecule = "COc1ccc(COC(=O)NN=C2C[C@@H](O)[C@@H](O)[C@@H]3[C@@H]4C(=O)N(c5cccc(Oc6ccccc6)c5)C(=O)[C@@H]4CC[C@@H]23)cc1"
group = "interval 1"

[[record]]
molecule = "C[C@H]1COC(=O)[C@@H]2CCCN2C(=O)[C@@H](C)COC(=O)[C@H](Cc2ccccc2)NC1=O"
group = "interval 2"

[[record]]
molecule = "CCOC(=O)[C@H](Cc1ccccc1)NC(=O)CCC1CC(OC(=O)NCCc2ccc(F)cc2)CC2(CCCC(COC(=O)NCCOC)O2)O1 (some centres undefined)"
group = "interval 2"

[[record]]
molecule = "C[C@@H](c1ccccc1)N1C(=O)[C@H]2[C@H]3[C@H](O)[C@H](O)CC(=NO[C@@H]4O[C@H](CO)[C@@H](O)[C@H](O)[C@H]4O)[C@H]3CC[C@H]2C1=O"
group = "interval 2"

[[record]]
molecule = "O=C(NN=C1C[C@@H](O)[C@@H](O)[C@@H]2[C@@H]3C(=O)N(Cc4ccccc4)C(=O)[C@@H]3CC[C@@H]12)OCc1ccccc1"
group = "interval 1"

[[record]]
molecule = "C[C@@H](ON=C1[C@H]2CCn3c(=O)n(-c4ccccc4)c(=O)n3[C@H]2[C@H](O)[C@@H]2O[C@H]12)c1cn([C@@H]2COC[C@H]2O)nn1"
group = "interval 3"

[[record]]
molecule = "CCOC(=O)NN=C1C[C@@H](O)[C@@H](O)[C@@H]2[C@@H]3C(=O)N(c4cccc(Oc5ccccc5)c4)C(=O)[C@@H]3CC[C@H]12"
group = "interval 1"

[[record]]
molecule = "CC(C)CON=C1C[C@@H](O)[C@@H](O)[C@@H]2[C@@H]3C(=O)N(c4cccc(Oc5ccccc5)c4)C(=O)[C@@H]3CC[C@@H]12"
group = "interval 1"

[[record]]
molecule = "CC(C)=CCCC(C)=CCON=C1C[C@@H](O)[C@@H](O)[C@@H]2[C@@H]3C(=O)N(C(C)(C)C)C(=O)[C@@H]3CC[C@H]12"
group = "interval 2"

[[record]]
molecule = "COC(=O)[C@H]1[C@@H](O)[C@@]2(O)c3ccccc3O[C@@]2(c2ccccc2)[C@@H]1c1ccccc1"
group = "interval 2"

[[record]]
molecule = "COC(=O)[C@H](C)NC(=O)CCC1CC(OC(=O)NCc2ccc3c(c2)OCO3)CC2(CCCC(COC(=O)NCC3CCCCC3)O2)O1 (some centres undefined)"
group = "interval 3"

[[record]]
molecule = "CC(CCN1CCCCc2nc(C)c(C)cc21)=NO[C@H](C)c1cn([C@H](CO)Cc2ccccc2)nn1"
group = "interval 2"


###

The following compounds are listed with their measured composite z-score values.
assay: small-molecule microarray binders of probe aWnt5a, primary screen, biochemical, biotinylated probe, 635/667 nm fluorescence (AID 1113); details: higher = more signal;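 further: score merges 667 nm fluorescence intensity with signal-to-noise per printed feature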
measure name: composite z-score

[[record]]
compound = "COc1ccc(O[C@H]2C=C[C@@H](c3ccccc3)O[C@@H]2CON=C2[C@H]3CCn4c(=O)n(-c5ccccc5)c(=O)n4[C@H]3[C@H](O)[C@@H]3O[C@H]23)cc1"
measure_name = "composite z-score"
measured_number = -0.0192

[[record]]
compound = "CCOC(=O)NN=C1C[C@@H](O)[C@@H](O)[C@@H]2[C@@H]3C(=O)N(c4cccc(Oc5ccccc5)c4)C(=O)[C@@H]3CC[C@H]12"
measure_name = "composite z-score"
measured_number = -0.205

[[record]]
compound = "CC(C)CON=C1C[C@@H](O)[C@@H](O)[C@@H]2[C@@H]3C(=O)N(C(C)(C)C)C(=O)[C@@H]3CC[C@H]12"
measure_name = "composite z-score"
measured_number = -0.124

[[record]]
compound = "CCC=CCCC(OC(=O)c1ccc(Br)cc1)C1=CCCCC1=O (configuration not stated)"
measure_name = "composite z-score"
measured_number = -0.0512

[[record]]
compound = "CCOC(=O)C1=NO[C@@]2(C=C(Br)C3(OCCCO3)[C@H]3O[C@H]32)C1"
measure_name = "composite z-score"
measured_number = -0.138

[[record]]
compound = "C#CCCCON=C1C[C@@H](O)[C@@H](O)[C@@H]2[C@@H]3C(=O)N(Cc4ccccc4)C(=O)[C@@H]3CC[C@@H]12"
measure_name = "composite z-score"
measured_number = -0.0236

[[record]]
compound = "C#CCCCON=C1[C@H]2CCn3c(=O)n(C)c(=O)n3[C@H]2[C@H](O)[C@@H]2O[C@H]12"
measure_name = "composite z-score"
measured_number = -0.0486


###

system: Noggin (protein binding on small-molecule microarray); test: Noggin binders on small-molecule microarray, primary screen, biochemical, 635/667 nm fluorescence (AID 1095); settings: 635 nm fluorescence, higher = more signal;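 further: score merges 667 nm feature fluorescence with signal to noise over triplicate slides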
Assign true (1) to entries whose composite z-score meets or exceeds 0.7; assign false (0) to the rest.

[[record]]
compound = "O=C1C[C@@H](O)[C@@H](O)[C@@H]2[C@@H]3C(=O)N(Cc4ccccc4)C(=O)[C@@H]3CC[C@@H]12"
group = "false (0)"

[[record]]
compound = "CC(=O)OC[C@H]1O[C@H](CC=NO[C@H](C)c2cn([C@H](CO)Cc3ccccc3)nn2)C=C[C@@H]1OC(C)=O"
group = "false (0)"

[[record]]
compound = "COC(=O)NCC=Cc1nc(CCCO)co1"
group = "false (0)"

[[record]]
compound = "C[C@@H]1C=CCC(=O)OC[C@H]2O[C@@H](C=C[C@@H]2O)[C@H](C)C=CCC(=O)OC1"
group = "true (1)"

[[record]]
compound = "COC(=O)CC=C[C@@H](C)[C@@H](C=NOC[C@@H](O)[C@H]1O[C@@H]2OC(C)(C)O[C@@H]2[C@H]1O)NS(=O)(=O)c1ccc(C)cc1"
group = "true (1)"

[[record]]
compound = "C[C@H]1Cc2c(COc3ccccc3)nc3c(c2CO1)CN(CCOc1ccccc1)CC3"
group = "false (0)"

[[record]]
compound = "COCOc1ccc(Br)cc1C(=O)[C@@H]1O[C@H]1c1cccc(OC)c1"
group = "false (0)"

[[record]]
compound = "COC(=O)[C@@H]1CC[C@H](C)[C@@H](c2ccc(C)cc2)N1C(=O)c1ccc(C=NO[C@H](C)c2cn([C@@H]3COC[C@H]3O)nn2)cc1"
group = "false (0)"

[[record]]
compound = "Cc1cc2c(nc1C)CCCN2CC(O)CN1CCCc2nc(C)c(C)cc21"
group = "false (0)"

[[record]]
compound = "CO[C@@H]1COC(=O)[C@@H](C)NC(=O)CC=C[C@@H](C)[C@H](NS(=O)(=O)c2ccc(C)cc2)COC(=O)[C@H](C)NC(=O)CC=C[C@H]1C"
group = "true (1)"

[[record]]
compound = "O=C1[C@H]2[C@H]3[C@H](O)[C@H](O)CC(=NOC[C@@H](O)COCc4ccco4)[C@H]3CC[C@H]2C(=O)N1C[C@@H]1CCCO1"
group = "true (1)"

[[record]]
compound = "CO[C@@H]1COC(=O)CC=C[C@@H](C)[C@H](OC)COC(=O)[C@@H](C)COC(=O)CC=C[C@H]1C"
group = "false (0)"

[[record]]
compound = "CO[C@@H]1COC(=O)[C@@H](C)COC(=O)[C@@H](C)NC(=O)CC=C[C@@H]1C"
group = "true (1)"

[[record]]
compound = "O=C1CCCC=C1C(O)CCCCBr (stereo unspecified)"
group = "true (1)"


###

assay: small-molecule microarray binders of probe aShh, primary screen, biochemical, biotinylated probe, 635/667 nm fluorescence (AID 1114); conditions: higher = more signal;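 further: probe is biotin-labelled aShh protein from a stem cell growth factor screen; measures binding of labelled protein to compounds printed on the slide; score merges feature fluorescence at 667 nm with signal-to-noise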
Assign rule met to entries whose composite z-score meets or exceeds -0.2; assign rule not met to the rest.

[[record]]
molecule = "CCOC(=O)NN=C1C[C@@H](O)[C@@H](O)[C@@H]2[C@@H]3C(=O)N(c4ccc(F)cc4F)C(=O)[C@@H]3CC[C@@H]12"
group = "rule met"

[[record]]
molecule = "O=C1[C@H]2[C@H]3[C@H](O)[C@H](O)CC(=NOCc4ccccc4)[C@@H]3CC[C@H]2C(=O)N1C[C@@H]1CCCO1"
group = "rule met"

[[record]]
molecule = "COc1cc(O)c(C(=O)C=Cc2ccc3c(c2)OCO3)c(OC)c1"
group = "rule not met"

[[record]]
molecule = "COC(=O)[C@@H]1CC[C@H](C)[C@@H](c2ccc(C)cc2)N1C(=O)c1ccc(C=NO[C@H](C)c2cn([C@@H]3COC[C@H]3O)nn2)cc1"
group = "rule met"

[[record]]
molecule = "CCN1C(=O)[C@H]2[C@H]3[C@H](O)[C@H](O)CC(=O)[C@H]3CC[C@H]2C1=O"
group = "rule met"

[[record]]
molecule = "COC(=O)[C@H](C)NC(=O)CCC1CC(OC(=O)NCc2ccc3c(c2)OCO3)CC2(CCCC(COC(=O)NCC(c3ccccc3)c3ccccc3)O2)O1 (stereo partly drawn)"
group = "rule not met"

[[record]]
molecule = "CCCNC(=O)OC[C@H]1O[C@H](c2ccccc2)C=C[C@@H]1Oc1ccc(OC)cc1"
group = "rule met"

[[record]]
molecule = "C#CCCCON=C1C[C@@H](O)[C@@H](O)[C@@H]2[C@@H]3C(=O)N(C(C)(C)C)C(=O)[C@@H]3CC[C@@H]12"
group = "rule not met"

